# CC50 per record follows
tested on: SW48 human colorectal cancer cells (MSI-H cancer cells); assay: SW48 cell viability, CellTiter-Glo, 120 hours (Example B); conditions: Homo sapiens, SW48, 120 h, read-out: SW48 pCC50, SW48 cell viability, 120 hours incubation (converted); Table 2
All answers are understood in µM, so give the number only.

- O=C(O)[C@@H]1[C@@H](C(=O)Nc2ccc(C(F)(F)F)cc2F)CCC[C@H]1c1ccc(NS(=O)(=O)c2ccc3[nH]cnc3c2)cc1 (single isomer, unassigned): 7.94
- Cc1nc2cc(S(=O)(=O)N(C)c3ccc([C@@H]4CC(F)(F)C[C@H](C(=O)Nc5ccc(C(F)(F)F)cc5F)[C@H]4C(=O)O)cc3)ccc2n1C (single isomer, unassigned): 10
- Cc1nc2cc(S(=O)(=O)N(C)c3ccc([C@@H]4C[C@@H](N5CC[C@@H](F)C5)C[C@H](C(=O)Nc5ccc(C(F)(F)F)cc5F)[C@H]4C(=O)O)cc3)ccc2n1C (stereo in doubt): 25.1
- Cc1nc2cc(S(=O)(=O)N(C)c3ccc([C@H]4CCC[C@H](C(=O)Nc5ccc(C(C)C)cc5)[C@@H]4C(=O)O)cc3)ccc2n1C (single isomer, unassigned): 3.98

As a next step, examine the compound that follows.
Query string: So what does the record say about CC50 for O=C(O)[C@@H]1[C@@H](c2ccc(C3=CCS(=O)(=O)C3)cc2)CCC[C@H]1C(=O)Nc1ccc(C(F)(F)F)cc1F ?
Result string: 15.8
